We begin with IC50 values for NAMPT (Homo sapiens, UniProt P43490), as collected from the published literature.
observable: IC50 (nM)

Known results for molecules:
O=C(NCc1ccn2ccnc2c1)Nc1ccc(Oc2ccccc2)cc1 :: 1.14
CC(C)CCN(C(=O)CC1CCCO1)c1ncc(C(=O)NCCCn2ccnc2)s1 (centres unmarked) :: 2.33
CC(C)(C(=O)N1CCC(Oc2ccc(NC(=O)C3CN(c4cccnn4)C3)cc2)CC1)c1ccccc1 :: 1.51
COCCOCCOCCOCCOC(=O)CC1CN(C(=O)CCCCCNC(=O)/C=C/c2cccnc2)c2ccccc21 (centres unmarked) :: 21
CC1CC1C(=O)N1CCC(c2ccc(NC(=O)NCc3ccn4ccnc4c3)cc2)CC1 (centres unmarked) :: 1.11

A = O=C(Nc1ccc(C(=O)NCCCN2CCCCC2)cc1)Nc1ccc2nccn2c1
B = O=C(NCc1ccn2ccnc2c1)Nc1ccc(C2CCN(C(=O)CC3CC3)CC2)cc1
stdin: Pick the one with the larger IC50: A vs B Label of pick, please.
stdout: B
(B: 0.907 nM, A: 0.459 nM)

====

We begin with IC50 values for NAMPT (Homo sapiens), as collected from the published literature.
observable: IC50 (nM)

Known results for molecules:
CC1CC1C(=O)N1CC(c2ccc(C(=O)NCc3ccn4ccnc4c3)cc2)C1 (centres unmarked) :: 0.978
O=C(/C=C/c1cccnc1)NCCCCCCn1c(-c2ccccc2)cc2cc3c(cc21)OCO3 :: 386
CC(C)OCCNC(=O)N(CC1CCOCC1)c1ncc(C(=O)NCc2ccc3nccn3c2)s1 :: 6.91
CC(C)Cn1cc(-c2ccc(C(=O)NCc3ccn4ccnc4c3)o2)cn1 :: 0.403
CC(C)CCC(=O)N1CC(Oc2ccc(NC(=O)C3CN(c4ccnnc4)C3)cc2)C1 :: 20.2

a = Cc1ncccc1N1CC(C(=O)Nc2ccc(C3CCN(C(=O)c4ccsc4)CC3)cc2)C1
b = O=C(NCc1ccn2ccnc2c1)Nc1ccc(O[C@@H]2CCN(C(=O)c3ccccc3)C2)cc1
c = Cc1ccccc1C(=O)N1CC(c2ccc(C(=O)NCc3ccn4ccnc4c3)cc2)C1
stdin: Number of molecules to sort: 3. Sort criterion: IC50, ascending. Reply with the labels, ordered as the question asks.
stdout: b, c, a
(b: 0.169 nM, c: 0.69 nM, a: 67.9 nM)

====

We begin with IC50 values for NAMPT (Homo sapiens), as collected from the published literature.
observable: IC50 (nM)

Known results for molecules:
O=C(NCc1ccn2ccnc2c1)Nc1ccc(OC2CN(C(=O)CC3CC3)C2)cc1 :: 0.27
O=C(CCc1ccccc1)Nc1ccc(NC(=O)NCc2ccn3ccnc3c2)cc1 :: 0.593
CC(C)OCCNC(=O)N(CC1CCCO1)c1ncc(C(=O)NCc2ccc3nccn3c2)s1 (centres unmarked) :: 0.676
O=C(Nc1ccc(OC2CCN(C(=O)c3ccccc3Cl)CC2)cc1)C1CN(c2ccnnc2)C1 :: 15.5
CNC(=O)CCN(C(=O)CCOC)c1ncc(C(=O)NCCCn2ccnc2)s1 :: 0.747

a = O=C(NCCCn1ccnc1)c1cnc(N(Cc2ccc(F)cc2)C(=O)c2cccc(Cl)c2)s1
b = O=C(NCc1ccn2ccnc2c1)Nc1ccc(C2CCN(C(=O)[C@@H]3CCCO3)C2)cc1 (some centres unmarked)
c = CC(C)CC(=O)N1CCC(c2ccc(C(=O)NCc3cn4ccnc4cn3)cc2)CC1
d = CC1(Cn2cc(-c3ccc(C(=O)NCc4ccc5ncnn5c4)s3)cn2)CCOCC1
stdin: Number of molecules to sort: 4. Sort criterion: IC50, ascending. Reply with the labels, ordered as the question asks.
stdout: a, b, c, d

1 = O=C(NCc1ccn2ccnc2c1)c1ccc(OC2CCN(C(=O)CC3CCOCC3)CC2)cc1
2 = O=C(Nc1ccc(OC2CCN(C(=O)c3cscn3)CC2)cc1)C1CN(c2cccnn2)C1
stdin: Pick the one with the larger IC50: 1 vs 2 Label of pick, please.
stdout: 2

====

We begin with IC50 values for NAMPT (Homo sapiens), as collected from the published literature.
observable: IC50 (nM)

Known results for molecules:
O=C(Nc1ccc(OC2CN(C(=O)C3CCCCC3)C2)cc1)C1CN(c2ccnnc2)C1 :: 37.8
O=C(CC1CCCC1)Nc1ccc(C(=O)NCc2ccn3ccnc3c2)cc1F :: 0.449
CCN(CCOC)C(=O)N(Cc1ccc(F)cc1)c1ncc(C(=O)NCCCn2ccnc2)s1 :: 0.7
CC(C)CC(=O)N1CCC(c2ncc(C(=O)NCc3ccn4ccnc4c3)s2)C1 (centres unmarked) :: 0.543
CC(C)(O)C(=O)N1CCC(c2ccc(NC(=O)C3CN(c4ccnnc4)C3)cc2)CC1 :: 17
O=C(NCCCn1ccnc1)c1cnc(N(Cc2ccc(F)cc2)C(=O)CN2CCC(O)CC2)s1 :: 2.16
O=C(NCCCn1ccnc1)c1cnc(N(CCCN2CCCCC2)Cc2ccc(F)cc2)s1 :: 290
CC(C)(C)OC(=O)N1CCC(c2ccc(C(=O)NCc3cn4ccnc4cn3)cc2)CC1 :: 0.23
CC[C@H](C)C(=O)N1CC(Oc2ccc(C(=O)NCc3ccn4ccnc4c3)cc2)C1 :: 0.223
O=C(NCc1ccn2ccnc2c1)c1ccc(C2CCN(C(=O)CCC(F)(F)F)C2)s1 (centres unmarked) :: 0.49

a = CC(C)(C)OC(=O)N1CC(c2ccc(NC(=O)NCc3ccn4ccnc4c3)cc2)C1
b = CC(C)Cn1cc(-c2ccc(C(=O)NCc3ccc4nccn4c3)cc2)cn1
stdin: Pick the one with the larger IC50: a vs b Label of pick, please.
stdout: b

P = O=C(NCc1ccn2ccnc2c1)Nc1ccc(C2CCN(C(=O)C3CCS(=O)(=O)CC3)CC2)cc1
Q = CCC(C)CC(=O)N1CCC(c2ccc(C(=O)NCc3ccn4ccnc4c3)cc2)C1 (centres unmarked)
stdin: When the recorded IC50 values are compared, which is smaller: that of P or that of Q ? Label of pick, please.
stdout: P
(P: 0.169 nM, Q: 0.911 nM)

====

We begin with IC50 values for NAMPT (Homo sapiens, UniProt P43490), as collected from the published literature.
observable: IC50 (nM)

O=C(Nc1ccc(C2CCN(C(=O)CC3CCOCC3)CC2)cc1)[C@H]1CCN(c2cccnn2)C1 :: 8.94
COCC(=O)N1CCC(c2ccc(NC(=O)C3CN(c4cccnc4)C3)cc2)CC1 :: 0.293
COCCC(=O)N(Cc1ccc(C#N)cc1)c1ncc(C(=O)NCCCn2ccnc2)s1 :: 1.08

P = CCOCCC(=O)N1CCC(c2ccc(NC(=O)C3CN(c4cccnc4)C3)cc2)CC1
Q = O=C(Nc1ccc(OC2CCN(C(=O)CC3CC3)CC2)cc1)C1CN(c2ccnnc2)C1
R = CC(C)CS(=O)(=O)N1CC=C(c2ccc(C(=O)NCc3ccn4ccnc4c3)o2)CC1
S = O=C(Nc1ccc(OC2CCN(C(=O)c3ccccn3)CC2)cc1)C1CN(c2ccnnc2)C1
T = O=C(Nc1ccc(OC2CCN(C(=O)c3ccco3)CC2)cc1)C1CN(c2cccnc2)C1
stdin: Number of compounds to sort: 5. Sort criterion: IC50, ascending. Reply with the labels, ordered as the question asks.
stdout: P, T, R, Q, S
(P: 0.178 nM, T: 0.514 nM, R: 0.783 nM, Q: 25.3 nM, S: 57.1 nM)

====

We begin with IC50 values for NAMPT (Homo sapiens, UniProt P43490), as collected from the published literature.
observable: IC50 (nM)

Known results for compounds:
O=C(NCc1ccn2ccnc2c1)c1ccc(C2CN(C(=O)c3ccc(Cl)cc3)C2)cc1 :: 0.474
COc1cccc(C(=O)N2CCC(c3ccc(NC(=O)C4CN(c5cccnn5)C4)cc3)CC2)c1 :: 0.457
O=C(Nc1ccc(OC2CCN(C(=O)c3ccccc3Cl)CC2)cc1)C1CN(c2cccnn2)C1 :: 0.801
O=C(NCc1ccn2ccnc2c1)c1cnc(N2CC(COCc3ccccc3)OC2=O)s1 (stereo not shown) :: 0.169
COCCC(=O)N(CCc1ccccc1F)c1ncc(C(=O)NCCCn2ccnc2)s1 :: 1.61

A = O=C(Nc1ccc(C2CCN(C(=O)CC3CCCC3)CC2)cc1)C1CN(c2cccnc2)C1
B = O=C(NCc1ccn2ccnc2c1)c1ccc(C2CCN(C(=O)c3cccc(OC(F)(F)F)c3)CC2)cc1
C = CCOCC(=O)N1CC=C(c2ccc(NC(=O)Nc3ccc4nccn4c3)cc2)CC1
D = CC(C)C(=O)N1CCC(c2ccc(NC(=O)[C@H]3CCN(c4cccnn4)C3)cc2)CC1
E = O=C(NCc1ccn2ccnc2c1)c1ccc(-c2cnn(CC3CCCO3)c2)o1 (stereo not shown)
stdin: Put the items in sequence by IC50, from largest down. Reply with the labels, ordered as the question asks.
stdout: D, B, A, C, E

a = CC(C)CS(=O)(=O)N1CCC(c2ccc(C(=O)NCc3ccn4ccnc4c3)s2)CC1
b = COCCC(=O)N(CCOC)c1ncc(C(=O)NCCCn2ccnc2)s1
stdin: When the recorded IC50 values are compared, which is smaller: that of a or that of b ? Label of pick, please.
stdout: a

I = O=C(NCc1ccn2ccnc2c1)c1ccc(-c2cnn(C[C@H]3CCCO3)c2)o1
II = O=C(NCCCn1ccnc1)c1cnc(N(Cc2ccc(F)cc2)C(=O)N2CCCOCC2)s1
stdin: When the recorded IC50 values are compared, which is smaller: that of I or that of II ? Label of pick, please.
stdout: I
(I: 0.691 nM, II: 7.04 nM)
